Listed below: pIC50 values for each entry.
- tested-system: T1, full-length human Regnase-1 with a FLAG tag on the N-terminal side and a biotin ligase BirA recognition … (human, UniProt Q5D1E8 1-599, biotinylated where required ; Biotinylated at the BirA recognition sequence where required. That sequence is not in the letters.)
- T1 construct: Expressed in Expi293 cells, purified on FLAG M2 agarose and by gel filtration; also called full-length Regnase-1; human full-length Regnase-1
- T1 sequence: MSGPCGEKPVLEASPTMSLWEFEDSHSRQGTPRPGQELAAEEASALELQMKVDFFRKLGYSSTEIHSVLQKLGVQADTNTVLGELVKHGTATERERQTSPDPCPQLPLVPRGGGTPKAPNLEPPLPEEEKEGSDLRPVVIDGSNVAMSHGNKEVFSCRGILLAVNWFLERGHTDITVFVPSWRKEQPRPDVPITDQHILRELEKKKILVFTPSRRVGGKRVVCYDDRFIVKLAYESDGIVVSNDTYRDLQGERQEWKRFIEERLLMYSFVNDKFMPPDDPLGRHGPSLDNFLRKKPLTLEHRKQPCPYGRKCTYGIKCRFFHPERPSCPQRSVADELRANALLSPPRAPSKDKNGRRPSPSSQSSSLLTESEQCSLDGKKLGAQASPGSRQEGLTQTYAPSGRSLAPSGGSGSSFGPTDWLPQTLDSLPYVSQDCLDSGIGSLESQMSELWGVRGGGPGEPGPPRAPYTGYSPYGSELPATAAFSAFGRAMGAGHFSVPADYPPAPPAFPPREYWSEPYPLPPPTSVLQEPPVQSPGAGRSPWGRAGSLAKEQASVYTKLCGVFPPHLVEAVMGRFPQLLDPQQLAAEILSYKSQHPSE
- test-summary: AlphaScreen, blocks TBK1 binding to FL_Reg1
pIC50: −log10 of the molar value. Positions of bridges follow the written chain, without caps; N, C: chain ends. Non-standard residues stand in square brackets, D forms with d. No end group written: not given here. NMeA = CN[C@@H](C)C(=O)O; dNMeA = CN[C@H](C)C(=O)O

binder: [NMeA]TSWYKVNWGQD (lactam N-12) [PP1]
reported-relation: <
pIC50: 4.21
--
binder: [NMeA]HSNAWYNIWD (lactam N-11) [PP5]
reported-relation: =
pIC50: 4.94
--
binder: [dNMeA]PNSSWFKIWD (lactam N-11) [PP6]
reported-relation: =
pIC50: 4.72
--
binder: [NMeA]GYANSWYNIWD (lactam N-12) [PP2]
reported-relation: =
pIC50: 4.81
--
binder: [dNMeA]KHASAWYRIWD (lactam N-12) [PP3]
reported-relation: =
pIC50: 5.51
--
binder: [NMeA]YIWDFFGDLD (lactam N-11) [PP4]
reported-relation: =
pIC50: 4.61
